studySystem: Abeta42 beta amyloid peptide (UniProt P05067)
Sequence (P05067 672-713 limits assumed): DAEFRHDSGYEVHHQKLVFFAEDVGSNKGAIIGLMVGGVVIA
procedureSummary: competition ELISA, NS0 supernatant titrated against 0.25 ug/ml biotinylated mouse 6E10 (mouse MDT-2007) on coated beta amyloid; IC50 normalised to mouse 6E10 (=1; <1 improved)
Measured fold difference in IC50 relative to mouse 6E10 by item
Give the quantity in fold, number only.

Composite human antibody variant VH2/VK2 (antibody, human IgG1, V domains shown) VH: EVQLVQSGAEVKKPGASVKVSCTASGFNIKDTYIHWVRQARGQRLEWIGRFDPVNVNTRYDSRFRGRATITSDASTNTAYMELSSLRSEDTAVYYCSRSYYNGRRRFTYWGQGTLVTVSS VL: DIVMTQSPSSLTASVGDRVTITCKASQSLLSSGNQKNYLTWYQQKPGQPPKLLIYWASIRESGVPDRFTGSGSGTFFTLTISSLQAEDVAVYYCQNDYNYPFTFGQGTKLEIK
1.1

The record that follows has no fold difference in IC50 relative to mouse 6E10 shown yet.
Would you mind telling me what fold difference in IC50 relative to mouse 6E10 value was observed for Composite human antibody variant VH1/VK3 (antibody, human IgG1, V domains shown) VH: EVQLVQSGAELKKPGASVKVSCTASGFNIKDTYIHWVRQAPGQRLEWIGRFDPVNVNTRYDSRFRGRATITSDASTNTAYMELSSLRSEDTAVYYCSRSYYNGRRRFTYWGQGTLVTVSS VL: DIVMTQSPSSLTASVGDRVTITCKASQSLLSSGNQKNYLTWYQQKPGQPPKLLIYWASIRESGVPDRFSGSGSGTDFTLTISSLQAEDVAVYYCQNDYNYPFTFGQGTKLEIK ?
1.93

Numbers sourced from patent EP2586797A2.
